TARGET UNDER TEST: TXK (Homo sapiens)
Construct: purchased Reaction Biology Europe GmbH
Sequence (P42681 whole entry): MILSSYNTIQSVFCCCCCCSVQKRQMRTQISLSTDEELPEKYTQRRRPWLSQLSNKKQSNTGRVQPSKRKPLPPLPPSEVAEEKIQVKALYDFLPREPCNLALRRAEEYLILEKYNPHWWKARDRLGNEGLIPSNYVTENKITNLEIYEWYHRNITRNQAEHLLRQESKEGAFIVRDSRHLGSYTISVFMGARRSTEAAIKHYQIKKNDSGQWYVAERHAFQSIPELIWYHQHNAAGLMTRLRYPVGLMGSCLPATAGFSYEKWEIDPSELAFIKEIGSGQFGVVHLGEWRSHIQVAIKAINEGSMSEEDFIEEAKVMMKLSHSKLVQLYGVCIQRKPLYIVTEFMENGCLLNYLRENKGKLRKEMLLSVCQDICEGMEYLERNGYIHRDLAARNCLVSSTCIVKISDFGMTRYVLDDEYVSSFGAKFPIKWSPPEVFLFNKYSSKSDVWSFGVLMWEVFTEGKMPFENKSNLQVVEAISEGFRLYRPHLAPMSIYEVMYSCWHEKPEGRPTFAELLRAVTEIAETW
ASSAY PROCEDURE: PanQinase kinase panel: TXK
Type: biochemical
TEST CONDITIONS: read-out: INHIBITORY EFFECT @ 1 uM: TXK

| COMPOUND | inhibition at 1 µM |
| --- | --- |
| COc1ccc(F)cc1C(=O)NCc1ccc(-c2nn([C@@H](C)C(F)(F)F)c(N)c2C(N)=O)cc1 [LOXO-305, pirtobrutinib] | 50 to 69% |
| C=CC(=O)N1CCC([C@@H]2CCNc3c(C(N)=O)c(-c4ccc(Oc5ccccc5)cc4)nn32)CC1 [Zanubrutinib] | 90 to 100% |
| O=C(c1ccc(Oc2ccccc2)cc1Cl)c1c[nH]c2ncnc(N[C@@H]3CC[C@@H](CO)OC3)c12 [ARQ-531] | 90 to 100% |
| Cc1cccnc1[C@H]1CCC[C@@H](c2ncccc2C)N1CCN1CCN(C(=O)c2ccc(-c3cc4c(-c5cccc(NC(=O)c6ccccc6)c5C)ncnc4[nH]3)cc2)CC1 [Compound I-10] | < 50% |

====

TARGET UNDER TEST: INSR (Homo sapiens, UniProt P06213)
Construct: purchased Reaction Biology Europe GmbH
Sequence (P06213 28-1382): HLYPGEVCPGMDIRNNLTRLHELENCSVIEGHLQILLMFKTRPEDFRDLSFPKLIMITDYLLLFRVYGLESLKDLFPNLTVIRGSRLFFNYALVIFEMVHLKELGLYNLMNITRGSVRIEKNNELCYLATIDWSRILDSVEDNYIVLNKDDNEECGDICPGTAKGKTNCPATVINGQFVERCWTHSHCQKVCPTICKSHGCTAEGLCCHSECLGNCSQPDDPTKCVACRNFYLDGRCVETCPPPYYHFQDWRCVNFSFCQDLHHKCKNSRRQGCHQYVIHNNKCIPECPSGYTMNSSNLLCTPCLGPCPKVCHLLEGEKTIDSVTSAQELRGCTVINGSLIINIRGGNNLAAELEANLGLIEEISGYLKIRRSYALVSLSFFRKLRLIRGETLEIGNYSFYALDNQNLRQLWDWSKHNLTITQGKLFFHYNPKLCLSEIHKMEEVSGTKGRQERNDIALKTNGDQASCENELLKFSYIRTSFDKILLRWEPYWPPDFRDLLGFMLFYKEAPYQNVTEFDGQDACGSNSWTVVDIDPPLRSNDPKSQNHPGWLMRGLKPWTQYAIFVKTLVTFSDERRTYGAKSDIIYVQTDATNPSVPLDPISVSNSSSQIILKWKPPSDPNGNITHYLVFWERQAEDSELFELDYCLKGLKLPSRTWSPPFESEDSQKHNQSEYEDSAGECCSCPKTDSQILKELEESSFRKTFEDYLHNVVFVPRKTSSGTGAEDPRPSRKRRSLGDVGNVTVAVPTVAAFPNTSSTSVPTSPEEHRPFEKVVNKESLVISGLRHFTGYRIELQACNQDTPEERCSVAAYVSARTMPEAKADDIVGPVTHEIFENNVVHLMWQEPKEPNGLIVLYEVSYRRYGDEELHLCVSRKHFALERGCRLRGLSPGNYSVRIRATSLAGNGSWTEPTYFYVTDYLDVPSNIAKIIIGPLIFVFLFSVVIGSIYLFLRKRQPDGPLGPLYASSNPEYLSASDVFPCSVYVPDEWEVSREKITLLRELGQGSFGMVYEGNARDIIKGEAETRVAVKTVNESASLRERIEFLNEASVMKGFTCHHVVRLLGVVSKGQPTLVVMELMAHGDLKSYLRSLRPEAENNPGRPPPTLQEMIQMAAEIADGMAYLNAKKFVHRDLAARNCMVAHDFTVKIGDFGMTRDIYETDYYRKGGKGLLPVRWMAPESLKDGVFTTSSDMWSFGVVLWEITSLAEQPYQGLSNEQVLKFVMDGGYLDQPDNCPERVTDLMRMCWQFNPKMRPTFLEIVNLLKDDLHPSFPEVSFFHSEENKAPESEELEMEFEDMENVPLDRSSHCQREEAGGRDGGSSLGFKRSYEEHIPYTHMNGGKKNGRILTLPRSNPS
ASSAY PROCEDURE: PanQinase kinase panel: INSR
Format: biochemical
TEST CONDITIONS: read-out: INHIBITORY EFFECT @ 1 uM: INSR
MEASURED ATTRIBUTE: inhibition at 1 µM

| MOLECULE | MEASURED ATTRIBUTE | MEASURED RESULT |
| --- | --- | --- |
| O=C(c1ccc(Oc2ccccc2)cc1Cl)c1c[nH]c2ncnc(N[C@@H]3CC[C@@H](CO)OC3)c12 [ARQ-531] | inhibition at 1 µM | 70 to 89% |
| Cc1cccnc1[C@H]1CCC[C@@H](c2ncccc2C)N1CCN1CCN(C(=O)c2ccc(-c3cc4c(-c5cccc(NC(=O)c6ccccc6)c5C)ncnc4[nH]3)cc2)CC1 [Compound I-10] | inhibition at 1 µM | < 50% |
| COc1ccc(F)cc1C(=O)NCc1ccc(-c2nn([C@@H](C)C(F)(F)F)c(N)c2C(N)=O)cc1 [LOXO-305, pirtobrutinib] | inhibition at 1 µM | < 50% |
| C=CC(=O)N1CCC([C@@H]2CCNc3c(C(N)=O)c(-c4ccc(Oc5ccccc5)cc4)nn32)CC1 [Zanubrutinib] | inhibition at 1 µM | < 50% |

====

Documented IC50 across a set of molecules
TARGET UNDER TEST: BTK (Bruton tyrosine kinase) (Homo sapiens)
Construct: GST or His (the text leaves open which); purchased Reaction Biology Europe GmbH Lot 012,11; host or cells: Sf9 insect cells or E. coli (not resolved)
Sequence (Q06187 whole entry): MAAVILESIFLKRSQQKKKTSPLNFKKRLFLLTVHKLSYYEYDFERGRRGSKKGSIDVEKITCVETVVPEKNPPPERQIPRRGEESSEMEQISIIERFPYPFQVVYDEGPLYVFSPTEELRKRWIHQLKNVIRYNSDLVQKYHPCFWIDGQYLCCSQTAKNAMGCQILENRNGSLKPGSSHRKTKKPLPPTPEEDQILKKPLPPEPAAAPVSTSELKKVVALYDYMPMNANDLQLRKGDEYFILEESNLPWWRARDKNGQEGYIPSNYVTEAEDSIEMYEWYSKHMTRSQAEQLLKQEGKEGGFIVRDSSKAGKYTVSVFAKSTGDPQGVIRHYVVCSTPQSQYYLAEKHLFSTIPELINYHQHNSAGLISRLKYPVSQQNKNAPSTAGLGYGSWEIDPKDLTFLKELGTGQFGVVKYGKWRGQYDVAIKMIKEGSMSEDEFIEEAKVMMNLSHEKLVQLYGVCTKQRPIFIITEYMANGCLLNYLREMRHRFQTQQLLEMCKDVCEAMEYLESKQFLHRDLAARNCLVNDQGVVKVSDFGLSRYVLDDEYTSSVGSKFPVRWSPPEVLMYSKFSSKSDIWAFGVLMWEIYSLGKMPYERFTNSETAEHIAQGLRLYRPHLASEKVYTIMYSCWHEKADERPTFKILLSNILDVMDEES
ASSAY PROCEDURE: BTK screening assay (33PanQinase Activity Assay, radiometric)
Type: biochemical
TEST CONDITIONS: Inhibition of BTK, radiometric 33PanQinase Activity Assay, 3 μM ATP, 10 concentrations in singlicate, top 10 μM; read-out: 33PanQinase ® Radiometric IC50

| COMPOUND STRUCTURE STRING | TARGET UNDER TEST | IC50 |
| --- | --- | --- |
| Cc1cc(-c2ncnc3[nH]c(C(=O)N(C)CCCN4[C@@H](c5ncccc5C)CCC[C@H]4c4ncccc4C)cc23)ccc1CNC(=O)c1ccc(C(C)(C)C)cc1 | BTK (Bruton tyrosine kinase) (Homo sapiens) | 100 to 1000 nM |
| Cc1cccnc1[C@H]1CCC[C@@H](c2ncccc2C)N1CCN1CCN(C(=O)c2ccc(-c3cc4c(-c5cccc(NC(=O)C(C)(C)C)c5C)ncnc4[nH]3)cc2)CC1 | BTK (Bruton tyrosine kinase) (Homo sapiens) | 100 to 1000 nM |
| Cc1cccnc1[C@H]1CCC[C@@H](c2ncccc2C)N1CCN1CCN(C(=O)c2ccc(-c3cc4c(-c5cccc(NC(=O)c6ccccc6F)c5C)ncnc4[nH]3)cc2)CC1 | BTK (Bruton tyrosine kinase) (Homo sapiens) | 1 to 100 nM |
